B1: GMCL1 (parent)
chain: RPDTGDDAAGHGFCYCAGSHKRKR

# Variants of: B1
# assayName: protein stability index of a GFP-peptide fusion (GPS, HEK-293T) (PSI 1-6); higher = more stable;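 also: lentivirally expressed fusions sorted by FACS into six bins by GFP to DsRed ratio, PSI derived from sequencing read proportions per bin multiplied by bin number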
# conditionSet: c terminus: a fixed tail appended
propertyLabel: protein stability index
Lab note: write the figure by itself, no unit.

sequenceRecord	recordedNumber
RPDTGDDAAGHGFCYCAGSHCRKR [K21C]	3.23
RPDTGDDASGHGFCYCAGSHKRKR [A9S]	2.7

Which value of protein stability index has been reported for RPDTGDDAAGHGFCYCACSHKRKR [G18C] in the records?
2.77

The reported numbers originate from the supplement of paper PMC10567573.
